Assay target: Cytochrome P450 2C19 (Homo sapiens)
Sequence (P33261 whole entry): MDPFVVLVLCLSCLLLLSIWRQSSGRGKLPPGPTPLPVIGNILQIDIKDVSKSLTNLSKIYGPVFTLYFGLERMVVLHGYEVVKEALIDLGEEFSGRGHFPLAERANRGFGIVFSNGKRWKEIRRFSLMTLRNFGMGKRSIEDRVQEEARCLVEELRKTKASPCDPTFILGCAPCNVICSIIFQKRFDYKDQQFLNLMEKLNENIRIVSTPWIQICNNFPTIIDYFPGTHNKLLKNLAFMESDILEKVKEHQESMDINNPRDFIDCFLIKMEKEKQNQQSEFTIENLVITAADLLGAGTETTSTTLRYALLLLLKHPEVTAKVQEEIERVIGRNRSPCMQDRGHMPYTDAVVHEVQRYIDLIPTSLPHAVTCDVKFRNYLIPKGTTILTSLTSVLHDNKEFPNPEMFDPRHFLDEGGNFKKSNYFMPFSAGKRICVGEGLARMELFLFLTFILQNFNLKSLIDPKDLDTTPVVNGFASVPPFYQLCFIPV
Assay comment: Cytochrome panel assay with activity outcomes. Panel member name: p450-cyp2c19 Compounds with AC50 equal or less than 10 uM are considered active
Type: functional
Stated conditions: read-out: AC50
Measured property: AC50

COc1cc(C2C(C(=O)c3ccc(C)o3)=C(O)C(=O)N2CCc2ccccc2)ccc1O (centres undefined) ... 11.2 µM (inconclusive)
CC(C)CC(=O)Nc1ccc2c(c1)oc1ccccc12 ... 2.82 µM (inconclusive)
CS(=O)(=O)N1CCN(c2ccccc2NC(=O)c2ccc(Br)o2)CC1 ... 39.8 µM (inconclusive)

Q: Which value of AC50 has been reported for "O=C(NNc1cccc(Cl)n1)Nc1ccccc1Cl" in the records?
Result: 6.31 µM (inconclusive)

Q: Then "CN(C)c1ncc2nc(-c3ccccc3)c(=O)n(C3CC3)c2n1" ?
Result: 39.8 µM (inconclusive)

Q: Then CC1Cc2ccccc2N1C(=O)Cn1cc([N+](=O)[O-])cn1 (centres undefined) ?
Result: 11.2 µM (inconclusive)

Q: Then O=C1C2ON(c3ccccc3)C(c3ccncc3)C2C(=O)N1c1ccccc1 (centres undefined) ?
Result: 0.0708 µM (inconclusive)

Q: Then "O=C(c1ccco1)N1CCC2(CC1)CN(c1ncccn1)C2" ?
Result: 25.1 µM (inconclusive)

Q: Then "Cc1nc(NC(=O)c2ccccc2)sc1-c1csc(Nc2ccc(F)cc2)n1" ?
Result: 0.355 µM (inconclusive)
